B1: OR4K15 (parent)
chain: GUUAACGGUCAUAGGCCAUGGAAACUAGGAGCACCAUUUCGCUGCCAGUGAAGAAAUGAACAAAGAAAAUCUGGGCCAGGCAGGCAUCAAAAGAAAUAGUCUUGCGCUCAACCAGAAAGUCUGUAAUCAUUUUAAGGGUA

Variants of: B1
Assay: self-cleavage, relative activity (ratio to wild type); higher = more cleavage; in vitro, sequencing; the parent is a self-cleaving ribozyme
We use 0.3 as the dividing line for self-cleavage: on or above the line is TRUE, below is FALSE.

sequence_entry	discrete_label
GUAAACGGUCAUAGGCCAUGGAAACUAGGAGCACCAUUUCGCUGCCAGUGAAGAAAUGAACAAAGAAAAUCUGGGCCAGGCAGGCAUCAAAAGAGAUAGUCUUGCGCUCAACCAGAAAGUCUGUAAUCAUUUUAAGGGUA [U3A A95G]	TRUE
GUUAACGGUUAUAGGCCAUGGAAACUAGGAGCACCAUUUCGCUGCCAGUGAAGAAAUGAACAUAGAAAAUCUGGGCCAGGCAGGCAUCAAAAGAAAUAGUCUUGCGCUCAACCAGAAAGUCUGUAAUCAUUUUAAGGGUA [C10U A63U]	TRUE
GUUAAUGGUCAUAGGCCAUGGAAACUAGGAGCACCAUUUCGCUGCCAGUGAAGAAAUGAACAAAGAAAAUCUGGGCCAGGCAGGCAUCAAAAGAAAUAGUCUUGCGCUCGACCAGAAAGUCUGUAAUCAUUUUAAGGGUA [C6U A110G]	FALSE
GUUAACGGUCAUAGGCCAUGGAAACUAGGAGCACCAUUUCGCUGCCAGUGAAGAAAUGAACAAUGAAAAUCUGGGCCAGGCAGGCAUCAAAAGAACUAGUCUUGCGCUCAACCAGAAAGUCUGUAAUCAUUUUAAGGGUA [A64U A96C]	TRUE
GUUAACGGUCAUAGGCCAUGGAAACUAGGAGCACCAUUUCGCUGCCAGUGAAGAAAUGAACAAAGAAAAUCUGGGCCAGGCGGGCAUCAAAAGAAAUAGUCUUGCGCUCAACCAGAAAGUCUGUACUCAUUUUAAGGGUA [A82G A126C]	TRUE
GUUAACGGUCAUAGGCCAUGGAAACUAGGAGCACCAUUUCGCUGCCAGUGAAGAAAUGAACAAAGAAAUUCUGGGCCAGGCAGGCAUCAAAAGAAAUAGUCUUGCGCUCAACCAGAAAGUCUGUAAUCAUUUUAAGAGUA [A69U G137A]	TRUE
GUUAACGGUCAUAGGCCAUGGAAACUAGGAGCACCAUUUCGCUGCCAGCGAAGAAAUGAACAAAGAAAAUCUGGGCCAGGCAGGCAUCAAAAGAAAUAGUCUUGCGCUCAACCAGAAAGUCUGUAGUCAUUUUAAGGGUA [U49C A126G]	TRUE
GUUAACGGUCAUAGGCCAUGGAAACUAGGAGCACCAUUUCGCUGCCAGUGGAGAAAUGAACAAAGAAAAUCGGGGCCAGGCAGGCAUCAAAAGAAAUAGUCUUGCGCUCAACCAGAAAGUCUGUAAUCAUUUUAAGGGUA [A51G U72G]	FALSE
GUUAACGGUCAUAGGCCAUGGAAACUAGGGGCACCAUUACGCUGCCAGUGAAGAAAUGAACAAAGAAAAUCUGGGCCAGGCAGGCAUCAAAAGAAAUAGUCUUGCGCUCAACCAGAAAGUCUGUAAUCAUUUUAAGGGUA [A30G U39A]	TRUE
GUUAACGGUCAUAGGCCAUGGAAACUAGGAGCACCAUUUCGCUGCCAGUGAUGAAAUGAACAAAGAAAAUCUGGGCCAGGCAGGCAUCAAAAGAAAUAGUCUUGCGCUCGACCAGAAAGUCUGUAAUCAUUUUAAGGGUA [A52U A110G]	FALSE
GUUAACGGUCAUAGGCCAUGGAUACUAGGAGCACCAUUUCGCUGCCAGUGAAGAAAUGAACAAAGAAAAUCUGGGCCAGGCAGGCAUCAAAAGAAAUAGUCUUGCGCUCAACCAGAAAGUCUGCAAUCAUUUUAAGGGUA [A23U U124C]	TRUE
GUUAACGGUCAAGGGCCAUGGAAACUAGGAGCACCAUUUCGCUGCCAGUGAAGAAAUGAACAAAGAAAAUCUGGGCCAGGCAGGCAUCAAAAGAAAUAGUCUUGCGCUCAACCAGAAAGUCUGUAAUCAUUUUAAGGGUA [U12A A13G]	TRUE
GUUAGCGGUCAUAGGCCAUGGAAACUAGGAGCACCAUUUCGCUGCCAGUGAAGAAAUGAACAAAGAAAAUCUGGGCCAGGCAGGCAUCAAAAGAAAUAGUCUUGCGCUCAACUAGAAAGUCUGUAAUCAUUUUAAGGGUA [A5G C113U]	FALSE
GUUAACGGCCAUAGGCCAUGGAAACUAGGAGCACCAUUUCGCUGCCAGUGAAGAAAUGAACAAAGAAAAUCUGGGCCAGGCAGGCAUCAAAAGAAAUAGUCUCGCGCUCAACCAGAAAGUCUGUAAUCAUUUUAAGGGUA [U9C U103C]	TRUE
GUUAACGGUCAUAGGCCAUGGAAACUAGGAGCACUAUUUCGCUGCCAGUGAAGAAAUGAACAAAGAAAAUCUGGGCCAGGCAGGCAUCAAAAGAAAUAGUCUUGCGCUCGACCAGAAAGUCUGUAAUCAUUUUAAGGGUA [C35U A110G]	FALSE
GUUAACGGUCAUAGGCCAUGGAAACUAGGAGCACCAUUUCGCUGCCAGUGAAGAAAUGAACAAAGAAAAUCUGGGCCUGGCAGGCAUCAAAAGAAAUAGUCUCGCGCUCAACCAGAAAGUCUGUAAUCAUUUUAAGGGUA [A78U U103C]	FALSE
GUUAACGGUCAUAGGCUAUGGAAACUAGGAGCACCAUUUCGCUGCCAGUGAAGAAAUGAACAAAGAAAAUCUGAGCCAGGCAGGCAUCAAAAGAAAUAGUCUUGCGCUCAACCAGAAAGUCUGUAAUCAUUUUAAGGGUA [C17U G74A]	FALSE
GUUAACGGUCAUAGGCCAUGGAAACUAGGAGCACCAUUUCGCUGCCAGUGAAGAAAUGAACAAAGAAAAUCUGGGCCAGGCAGGCAUCAAAAGAAAUAGUCUUGCGCCCAACCAGAAAGUCGGUAAUCAUUUUAAGGGUA [U108C U122G]	FALSE
GUUAACGGUCAUAGGCCGUGGAAACUAGGAGCACCAUUUCGCUGCCAGUGAAGAAAUGAACAAAGAAAAUCUGGGCCAGGCAGGCAUCAAAAGAAACAGUCUUGCGCUCAACCAGAAAGUCUGUAAUCAUUUUAAGGGUA [A18G U97C]	TRUE
GUUAACGGUCAUAGGCCAUGGAAACUAGGAGCACCAUUUCGCUGCCAGUGAAGAAAUGAACAAAGAAAAUCUGGGCCGGGUAGGCAUCAAAAGAAAUAGUCUUGCGCUCAACCAGAAAGUCUGUAAUCAUUUUAAGGGUA [A78G C81U]	FALSE
GUUAACGGUCAUAGGCCAUGGAAACUAGGGGCACCAUAUCGCUGCCAGUGAAGAAAUGAACAAAGAAAAUCUGGGCCAGGCAGGCAUCAAAAGAAAUAGUCUUGCGCUCAACCAGAAAGUCUGUAAUCAUUUUAAGGGUA [A30G U38A]	TRUE

Reference for the values: the RNAGym collection of RNA variant scans (doi:10.7554/elife.90254)
